test system: TK-10; assay: Cytotoxicity against human TK10 cells after 24 hrs by SRB assay; type: functional; conditions: TK-10, 24 h
REPORTED_ENDPOINT: TGI (µM)
Dear colleague, please return just the value in µM, with no unit written.

Task: Record request: TGI value, item COc1ccc(C(=O)/C=C/c2cc3ccccc3[nH]c2=O)cc1
Result: 55.8

Task: Could you tell me which TGI is on file for O=C(/C=C/c1cc2ccccc2[nH]c1=O)c1ccc(O)cc1 ?
Result: 11.8

Task: Quick one: TGI of O=C(/C=C/c1cc2ccccc2[nH]c1=O)c1ccc(Cl)cc1 ?
Result: 20.8

* * *

tested on: A549; assay: Cytotoxicity against human A549 cells after 24 hrs by SRB assay; format: cell-based; conditions: a549, 24 h
REPORTED_ENDPOINT: LC50

Task: Can you look up the measured LC50 of O=C(/C=C/c1cc2ccccc2[nH]c1=O)c1ccc(Cl)cc1 for me?
Result: > 100 µM

Task: What value of LC50 has been recorded for this entry: O=C(/C=C/c1cc2ccccc2[nH]c1=O)c1ccc(O)cc1
Result: 89.9 µM

Task: Looking for the measured LC50 of O=C(/C=C/c1cc2ccccc2[nH]c1=O)/C=C/c1cc2ccccc2[nH]c1=O , can you help?
Result: > 100 µM

Task: // query LC50 value for entry COc1ccc(C(=O)/C=C/c2cc3ccccc3[nH]c2=O)cc1
Result: > 100 µM

* * *

tested on: SNB-19; assay: Cytotoxicity against human SNB19 cells after 24 hrs by SRB assay; assay type: cell-based; details: snb-19, 24 h
REPORTED_ENDPOINT: LC50 (µM)
Kindly answer with a numeric value in µM, unit omitted.

Task: # LC50 lookup, item O=C(/C=C/c1cc2ccccc2[nH]c1=O)c1ccc(O)cc1
Result: 50.6

Task: Can you look up the measured LC50 of COc1ccc(C(=O)/C=C/c2cc3ccccc3[nH]c2=O)cc1 for me?
Result: 75.8

* * *

For each of the compounds below, state its LC50.
tested on: SK-MEL-28; assay: Cytotoxicity against human SK-MEL-28 cells after 24 hrs by SRB assay; type: cell-based; details: sk-mel-28, 24 h

Task: Value wanted: LC50 (SK-MEL-28) of entry O=C(/C=C/c1cc2ccccc2[nH]c1=O)/C=C/c1cc2ccccc2[nH]c1=O
Result: > 100 µM

Task: API: value(readout= LC50, system= SK-MEL-28, query= O=C(/C=C/c1cc2ccccc2[nH]c1=O)c1ccc(O)cc1 )
Result: 66.3 µM

Task: Please state recorded LC50 (tested on SK-MEL-28) of O=C(/C=C/c1cc2ccccc2[nH]c1=O)c1ccc(Cl)cc1
Result: > 100 µM

Task: Query the reported LC50 for SK-MEL-28; item: COc1ccc(C(=O)/C=C/c2cc3ccccc3[nH]c2=O)cc1
Result: > 100 µM

* * *

test system: SW-620; test: Cytotoxicity against human SW620 cells after 24 hrs by SRB assay; format: functional; settings: SW-620, 24 h
Task for the reader: assign each of the following molecules its reported GI50.
# output: bare number, implied unit nM

Task: Dear colleague, I am looking for the recorded GI50 of the following molecule: O=C(/C=C/c1cc2ccccc2[nH]c1=O)c1ccc(O)cc1
Result: 1890

Task: For the molecule COc1ccc(C(=O)/C=C/c2cc3ccccc3[nH]c2=O)cc1 , what GI50 is on record?
Result: 3410

Task: Return reported GI50; argument: O=C(/C=C/c1cc2ccccc2[nH]c1=O)c1ccc(Cl)cc1
Result: 3380

Task: Any idea what GI50 was measured for O=C(/C=C/c1cc2ccccc2[nH]c1=O)/C=C/c1cc2ccccc2[nH]c1=O ?
Result: 1000

* * *

test system: SK-MEL-2; assay: Cytotoxicity against human SK-MEL-2 cells after 24 hrs by SRB assay; assay type: cell-based; conditions: sk-mel-2, 24 h
Provide the recorded LC50 for the entries that follow.
Answer format: numeric, µM implied, no suffix.

Task: Request the reported LC50 associated with O=C(/C=C/c1cc2ccccc2[nH]c1=O)c1ccc(Cl)cc1
Result: 72.6

Task: Query (compound): O=C(/C=C/c1cc2ccccc2[nH]c1=O)c1ccc(O)cc1 ; field requested: LC50
Result: 48.3

* * *

test system: NCI-H522; assay: Cytotoxicity against human NCI-H522 cells after 24 hrs by SRB assay; type: cell-based; settings: nci-h522, 24 h
Please respond with reported LC50 for every item in the list.
# unit: µM | format: bare number

Task: Give its LC50 value. Item: O=C(/C=C/c1cc2ccccc2[nH]c1=O)c1ccc(Cl)cc1
Result: 47.2

Task: # query: LC50 of entry O=C(/C=C/c1cc2ccccc2[nH]c1=O)c1ccc(O)cc1
Result: 6.36

* * *

test system: MCF7; assay: Cytotoxicity against human MCF7 cells after 24 hrs by SRB assay; type: cell-based; conditions: mcf7, 24 h
Exercise: for every item that follows, state its recorded LC50.

Task: I'd like to know its LC50. The compound in question is O=C(/C=C/c1cc2ccccc2[nH]c1=O)/C=C/c1cc2ccccc2[nH]c1=O
Result: > 100 µM

Task: Which measured LC50 value corresponds to O=C(/C=C/c1cc2ccccc2[nH]c1=O)c1ccc(O)cc1 ?
Result: 82.9 µM

Task: Item under review: O=C(/C=C/c1cc2ccccc2[nH]c1=O)c1ccc(Cl)cc1 . Reported LC50?
Result: > 100 µM

Task: May I ask what LC50 has been recorded for COc1ccc(C(=O)/C=C/c2cc3ccccc3[nH]c2=O)cc1 ?
Result: > 100 µM

* * *

Exercise: state measured TGI for each of the compounds provided.
tested on: SK-MEL-28; assay: Cytotoxicity against human SK-MEL-28 cells after 24 hrs by SRB assay; assay type: functional; conditions: SK-MEL-28, 24 h
Numeric answer only, unit µM assumed.

Task: Consider the compound shown here: COc1ccc(C(=O)/C=C/c2cc3ccccc3[nH]c2=O)cc1 What is its recorded TGI?
Result: 30.6

Task: Consider the compound O=C(/C=C/c1cc2ccccc2[nH]c1=O)c1ccc(O)cc1 and give its measured TGI.
Result: 19.5

Task: Can you look up the measured TGI of O=C(/C=C/c1cc2ccccc2[nH]c1=O)c1ccc(Cl)cc1 for me?
Result: 72.5

* * *

Please go through the items and note down their GI50.
system: NCI/ADR-RES; assay: Cytotoxicity against human NCI/ADR-RES cells after 24 hrs by SRB assay; type: functional
Return type: number; implicit unit nM.

Task: May I ask what GI50 has been recorded for O=C(/C=C/c1cc2ccccc2[nH]c1=O)c1ccc(Cl)cc1 ?
Result: 4000

Task: Quick one: GI50 of COc1ccc(C(=O)/C=C/c2cc3ccccc3[nH]c2=O)cc1 ?
Result: 2630

Task: Item under review: O=C(/C=C/c1cc2ccccc2[nH]c1=O)c1ccc(O)cc1 . Reported GI50?
Result: 2900

* * *

tested on: OVCAR-3; assay: Cytotoxicity against human OVCAR3 cells after 24 hrs by SRB assay; format: functional; conditions: OVCAR-3, 24 h
Provide the reported GI50 of each item.
Just the number please, in µM, no unit attached.

Task: Fill blank: measured GI50 of the compound O=C(/C=C/c1cc2ccccc2[nH]c1=O)c1ccc(Cl)cc1 is ____.
Result: 5.9

Task: Value lookup for GI50; key = O=C(/C=C/c1cc2ccccc2[nH]c1=O)c1ccc(O)cc1
Result: 3.22

Task: Entry COc1ccc(C(=O)/C=C/c2cc3ccccc3[nH]c2=O)cc1 : reported GI50 = ?
Result: 2.49

Task: Recorded GI50 of O=C(/C=C/c1cc2ccccc2[nH]c1=O)/C=C/c1cc2ccccc2[nH]c1=O , please.
Result: 4.2

* * *

tested on: MOLT-4; assay: Cytotoxicity against human MOLT4 cells after 24 hrs by SRB assay; format: functional; conditions: MOLT-4, 24 h
Consider the following compounds; for each one, report its GI50.
Kindly answer with a numeric value in µM, unit omitted.

Task: Requested field: GI50. Item: O=C(/C=C/c1cc2ccccc2[nH]c1=O)/C=C/c1cc2ccccc2[nH]c1=O
Result: 2.27

Task: Entry under review: COc1ccc(C(=O)/C=C/c2cc3ccccc3[nH]c2=O)cc1 . Reported GI50?
Result: 3.39

Task: What does the data say about its GI50? Entry: O=C(/C=C/c1cc2ccccc2[nH]c1=O)c1ccc(O)cc1
Result: 3.04

Task: Look at this compound and give its reported GI50. O=C(/C=C/c1cc2ccccc2[nH]c1=O)c1ccc(Cl)cc1
Result: 3.11

* * *

Give measured LC50 for each item. Keep answers brief.
test system: SK-MEL-5; assay: Cytotoxicity against human SK-MEL-5 cells after 24 hrs by SRB assay; format: cell-based; details: sk-mel-5, 24 h
The reply should contain only the number, in µM.

Task: // lookup LC50 for COc1ccc(C(=O)/C=C/c2cc3ccccc3[nH]c2=O)cc1
Result: 45

Task: Which LC50 value belongs to O=C(/C=C/c1cc2ccccc2[nH]c1=O)c1ccc(O)cc1 ?
Result: 37.3
